Reference source for all entries: ChEMBL document CHEMBL5724914

# Run Description: The drug is tested on WLS-027 corresponding to human gut metagenome with ENA study accession number: PRJEB37062 and ENA sample accession number: ERS12561744 for biotransformation under anaerobic condition. The drug concentrations were measured over 9 timepoints collected between 0 and 24 hours of incubation by liquid-chromatography-coupled mass spectrometry (LC–MS); further: call rule not given here
# Assay Context: 2 µM

| Molecule | Bacterial Biotransformation |
| --- | --- |
| Fc1ccc([C@@H]2CCNC[C@H]2COc2ccc3c(c2)OCO3)cc1 | Compound metabolized |
| CCCCc1nc(Cl)c(CO)n1Cc1ccc(-c2ccccc2-c2nn[nH]n2)cc1 | Compound metabolized |
| CC(CN(C)C)CN1c2ccccc2CCc2ccccc21.O=C(O)/C=C\C(=O)O (stereo unspecified) [TRIMIPRAMINE MALEATE] | Compound metabolized |
| O=C(NCc1ccccc1)OCCO [BURAMATE] | Compound NOT metabolized |
| COC(=O)Nc1nc2ccc(C(=O)c3ccccc3)cc2[nH]1 | Compound metabolized |
| O=C1[C@H](CC[C@H](O)c2ccc(F)cc2)[C@@H](c2ccc(O)cc2)N1c1ccc(F)cc1 | Compound NOT metabolized |

----------
# Run Description: The drug is tested on WLS-010 corresponding to human gut metagenome with ENA study accession number: PRJEB37062 and ENA sample accession number: ERS12561743 for biotransformation under anaerobic condition. The drug concentrations were measured over 9 timepoints collected between 0 and 24 hours of incubation by liquid-chromatography-coupled mass spectrometry (LC–MS)
# Assay Context: 2 µM
Property Measured: Bacterial Biotransformation

| Compound | Meas Value |
| --- | --- |
| CCCCc1nc(Cl)c(CO)n1Cc1ccc(-c2ccccc2-c2nn[nH]n2)cc1 | Compound metabolized |
| CC(Oc1c(Cl)cccc1Cl)C1=NCCN1 (configuration not stated) | Compound NOT metabolized |
| Cc1ccc(S(=O)(=O)NC(=O)NN2CC3CCCC3C2)cc1 (configuration not stated) [GLICLAZIDE] | Compound metabolized |
| CC(O)(CS(=O)(=O)c1ccc(F)cc1)C(=O)Nc1ccc(C#N)c(C(F)(F)F)c1 (configuration not stated) [BICALUTAMIDE] | Compound NOT metabolized |
| OCCN1CCN(CCCN2c3ccccc3Sc3ccc(C(F)(F)F)cc32)CC1 | Compound metabolized |
| CNC(=C[N+](=O)[O-])NCCSCc1csc(CN(C)C)n1 | Compound NOT metabolized |
| CCCc1nc2c(C)cc(-c3nc4ccccc4n3C)cc2n1Cc1ccc(-c2ccccc2C(=O)O)cc1 | Compound metabolized |

----------
# Run Description: The drug is tested on WLS-350 corresponding to human gut metagenome with ENA study accession number: PRJEB37062 and ENA sample accession number: ERS12561789 for biotransformation under anaerobic condition. The drug concentrations were measured over 9 timepoints collected between 0 and 24 hours of incubation by liquid-chromatography-coupled mass spectrometry (LC–MS)
# Assay Context: 2 µM
Property Measured: Bacterial Biotransformation

| Compound | Property Measured | Meas Value |
| --- | --- | --- |
| O=c1n(CCCN2CCN(c3cccc(Cl)c3)CC2)nc2ccccn12 | Bacterial Biotransformation | Compound metabolized |
| Cc1ccc(-c2cc(C(F)(F)F)nn2-c2ccc(S(N)(=O)=O)cc2)cc1 | Bacterial Biotransformation | Compound NOT metabolized |
| CCCC1O[C@@H]2C[C@H]3[C@@H]4CCC5=CC(=O)C=C[C@]5(C)[C@H]4[C@@H](O)C[C@]3(C)[C@]2(C(=O)CO)O1 (stereo partly drawn) [BUDESONIDE] | Bacterial Biotransformation | Compound metabolized |
| CN1CC(=O)N2[C@H](c3ccc4c(c3)OCO4)c3[nH]c4ccccc4c3C[C@@H]2C1=O | Bacterial Biotransformation | Compound metabolized |
| C=CCN1CC[C@]23c4c5ccc(O)c4O[C@H]2C(=O)CC[C@@]3(O)[C@H]1C5 | Bacterial Biotransformation | Compound NOT metabolized |
| Cc1ccnc2c1NC(=O)c1cccnc1N2C1CC1 | Bacterial Biotransformation | Compound metabolized |
| O=P(O)(O)O.c1ccc(CN(CC2=NCCN2)c2ccccc2)cc1 [ANTAZOLINE PHOSPHATE] | Bacterial Biotransformation | Compound NOT metabolized |
| NS(=O)(=O)c1cc2c(cc1Cl)N=C(CSCc1ccccc1)NS2(=O)=O [BENZTHIAZIDE] | Bacterial Biotransformation | Compound NOT metabolized |
| O=C1NCC2(CCN(CCc3ccccc3)CC2)O1 [FENSPIRIDE] | Bacterial Biotransformation | Compound NOT metabolized |
| CC(C)(C#N)c1cc(Cn2cncn2)cc(C(C)(C)C#N)c1 | Bacterial Biotransformation | Compound metabolized |
| CN1CCc2c(c3ccccc3n2Cc2ccccc2)C1.CN1CCc2c(c3ccccc3n2Cc2ccccc2)C1.O=S(=O)(O)c1cccc2c(S(=O)(=O)O)cccc12 | Bacterial Biotransformation | Compound NOT metabolized |
| CCOC(=O)[C@H](CCc1ccccc1)N[C@H]1CCc2ccccc2N(CC(=O)O)C1=O | Bacterial Biotransformation | Compound metabolized |
| COc1cc2c(c(OC)c1OC)-c1ccc(OC)c(=O)cc1[C@@H](NC(C)=O)CC2 | Bacterial Biotransformation | Compound NOT metabolized |

----------
# Run Description: The drug is tested on WLS-077 corresponding to human gut metagenome with ENA study accession number: PRJEB37062 and ENA sample accession number: ERS12561750 for biotransformation under anaerobic condition. The drug concentrations were measured over 9 timepoints collected between 0 and 24 hours of incubation by liquid-chromatography-coupled mass spectrometry (LC–MS)
# Assay Context: 2 µM

| Compound | Bacterial Biotransformation |
| --- | --- |
| CCOC(=O)[C@H](CCc1ccccc1)N[C@@H](C)C(=O)N1[C@H](C(=O)O)C[C@H]2CCCC[C@@H]21 [TRANDOLAPRIL] | Compound metabolized |
| CC(=O)O[C@]1(C(C)=O)CC[C@H]2[C@@H]3C=C(Cl)C4=CC(=O)[C@@H]5C[C@@H]5[C@]4(C)[C@H]3CC[C@@]21C [CYPROTERONE ACETATE] | Compound metabolized |
| CNC(=C[N+](=O)[O-])NCCSCc1ccc(CN(C)C)o1 [RANITIDINE] | Compound NOT metabolized |
| CN1CCc2cccc3c2[C@H]1Cc1ccc(O)c(O)c1-3 [APOMORPHINE] | Compound NOT metabolized |
| Cc1cc2c(cc1S(N)(=O)=O)S(=O)(=O)CCC2 | Compound NOT metabolized |
| CCN(CC)C(C)CN1c2ccccc2Sc2ccccc21 (stereo unspecified) [ETHOPROPAZINE] | Compound metabolized |

----------
# Assay Context: human gut metagenome, 24 h, 2 µM

| Compound | Bacterial Biotransformation |
| --- | --- |
| Cc1ccc(-c2nc3ccc(C)cn3c2CC(=O)N(C)C)cc1 [ZOLPIDEM] | Compound NOT metabolized |
| Cc1ccc(/C(=C\CN2CCCC2)c2ccccn2)cc1 [TRIPROLIDINE] | Compound NOT metabolized |
| COc1cc2nc(N(C)CCCNC(=O)C3CCCO3)nc(N)c2cc1OC (stereo not given) [ALFUZOSIN] | Compound metabolized |
| O=C1[C@H](CC[C@H](O)c2ccc(F)cc2)[C@@H](c2ccc(O)cc2)N1c1ccc(F)cc1 [EZETIMIBE] | Compound NOT metabolized |
| Clc1ccc(Cn2c(CN3CCCC3)nc3ccccc32)cc1 [CLEMIZOLE] | Compound NOT metabolized |
| N#Cc1ccc(C(c2ccc(C#N)cc2)n2cncn2)cc1 [LETROZOLE] | Compound NOT metabolized |
| CNC(=C[N+](=O)[O-])NCCSCc1csc(CN(C)C)n1 [NIZATIDINE] | Compound metabolized |
| COC(=O)Nc1nc2ccc(C(=O)c3ccccc3)cc2[nH]1 [MEBENDAZOLE] | Compound metabolized |
| C[C@@H]1C[C@H]2[C@@H]3CCC4=CC(=O)C=C[C@]4(C)[C@@]3(F)[C@@H](O)C[C@]2(C)[C@@]1(O)C(=O)CO [DEXAMETHASONE] | Compound NOT metabolized |
| CC[C@H](C)C(=O)O[C@H]1C[C@@H](C)C=C2C=C[C@H](C)[C@H](CC[C@@H]3C[C@@H](O)CC(=O)O3)[C@H]21 [LOVASTATIN] | Compound metabolized |
| Nc1ccc(/N=N/c2ccccc2)c(N)n1 [PHENAZOPYRIDINE] | Compound metabolized |
| Br.CN(C)CCCC1(c2ccc(F)cc2)OCc2cc(C#N)ccc21 (stereo not given) [CITALOPRAM HYDROBROMIDE] | Compound metabolized |
| CC(C)NCC(O)COc1ccc(COCCOC(C)C)cc1.CC(C)NCC(O)COc1ccc(COCCOC(C)C)cc1.O=C(O)/C=C/C(=O)O (stereo not given) [BISOPROLOL FUMARATE] | Compound NOT metabolized |
| CNS(=O)(=O)Cc1ccc2[nH]cc(CCN(C)C)c2c1.O=C(O)CCC(=O)O [SUMATRIPTAN SUCCINATE] | Compound NOT metabolized |
| CS(=O)(=O)O.O.O.O.O=C1Cc2cc(CCN3CCN(c4nsc5ccccc45)CC3)c(Cl)cc2N1 [ZIPRASIDONE MESYLATE] | Compound NOT metabolized |
